assayProtocol: Fraction unbound in rat plasma
Assay type: ADME, cell-free
Catalogue of fraction unbound readings, one per entry.

{"smilesString": "Cc1cncc(-c2ccc(C(=O)N(c3ncccc3Cl)[C@@H]3CCCNC3)cc2)n1", "fraction unbound": 0.41}
{"smilesString": "Cc1cnc2c(c1)nnn2-c1ccc(C(=O)N(c2ncccc2Cl)[C@@H]2CCCNC2)nc1", "fraction unbound": 0.24}
{"smilesString": "O=C(c1ccc(-n2nnc3cccnc32)cc1)N(c1ncccc1Cl)[C@@H]1CCCNC1", "fraction unbound": 0.2}

* * *

assayProtocol: Total plasma concentration in Crl:CD(SD) rat at 15 mg/kg/day, po daily via gavage for 14 days measured on day 14 post last dose up to 24 hrs
Format: ADME, organism-based
experimentalContext: in vivo

{"smilesString": "O=C(c1ccc(-n2nnc3cccnc32)cc1)N(c1ncccc1Cl)[C@@H]1CCCNC1", "concentration, µM": 2.42}

* * *

Catalogue of logD readings, one per entry.
assayProtocol: Lipophilicity, log D of the compound by shake flask method
Assay type: physicochemical
experimentalContext: octanol/water

{"smilesString": "CNc1cncc(-c2ccc(C(=O)N(c3ncccc3Cl)[C@@H]3CCCNC3)cc2)n1", "logD": 1.07}
{"smilesString": "O=C(c1ccc(-c2cnccn2)cc1)N(c1nccc2ccccc12)[C@@H]1CCCNC1", "logD": 0.7}
{"smilesString": "O=C(c1ccc(-n2nnc3cccnc32)cc1)N(c1ncccc1Cl)[C@@H]1CCCNC1", "logD": 0.8}
{"smilesString": "COc1ccc(CCC(=O)N(c2nccc3ccccc23)[C@@H]2CCCNC2)cc1", "logD": 1.1}
{"smilesString": "Cc1ccc2nnn(-c3ccc(C(=O)N(c4ncccc4Cl)[C@@H]4CCCNC4)cc3)c2n1", "logD": 1.2}
{"smilesString": "O=C(c1ccc(-c2ccccc2)cc1)N(c1nccc2ccccc12)[C@@H]1CCCNC1", "logD": 2.5}

* * *

Catalogue of inhibition at 3 µM readings, one per entry.
testedTarget: CYP3A4 (Homo sapiens)
Sequence (P08684 whole entry): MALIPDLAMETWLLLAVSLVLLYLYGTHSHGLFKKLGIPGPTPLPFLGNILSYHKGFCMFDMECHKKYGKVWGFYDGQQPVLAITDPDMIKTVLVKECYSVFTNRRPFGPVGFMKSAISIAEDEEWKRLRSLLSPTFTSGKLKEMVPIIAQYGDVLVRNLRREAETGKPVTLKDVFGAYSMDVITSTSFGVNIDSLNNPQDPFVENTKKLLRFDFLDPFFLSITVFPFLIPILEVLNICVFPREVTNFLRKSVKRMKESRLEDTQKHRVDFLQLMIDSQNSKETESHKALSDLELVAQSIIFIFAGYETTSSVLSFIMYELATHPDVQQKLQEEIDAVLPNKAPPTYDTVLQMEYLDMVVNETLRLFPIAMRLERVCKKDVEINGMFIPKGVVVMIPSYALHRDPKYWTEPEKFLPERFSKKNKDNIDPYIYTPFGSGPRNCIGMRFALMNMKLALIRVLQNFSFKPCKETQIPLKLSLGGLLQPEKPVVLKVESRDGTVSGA
assayProtocol: Inhibition of CYP3A4 (unknown origin) at 3 uM relative to control
Format: ADME
quantityKind: inhibition at 3 µM

{"smilesString": "Cc1cnc2c(c1)nnn2-c1ccc(C(=O)N(c2ncccc2Cl)[C@@H]2CCCNC2)nc1", "endpointResult": "< 13%"}
{"smilesString": "COc1ccc(CCC(=O)N(c2nccc3ccccc23)[C@@H]2CCCNC2)cc1", "endpointResult": "< 20%"}

* * *

assayProtocol: Intrinsic clearance in human liver microsomes
Assay type: ADME, microsome
experimentalContext: read-out: CLH
quantityKind: microsomal CLint (µL/min/mg)

{"smilesString": "Cc1cncc(-c2ccc(C(=O)N(c3ncccc3Cl)[C@@H]3CCCNC3)cc2)n1", "quantityKind": "microsomal CLint", "valueQualifier": "<", "endpointResult": 8}
{"smilesString": "Cc1ccc2nnn(-c3ccc(C(=O)N(c4ncccc4Cl)[C@@H]4CCCNC4)cc3)c2n1", "quantityKind": "microsomal CLint", "valueQualifier": "=", "endpointResult": 9}
{"smilesString": "Cn1cc(-c2ccc(C(=O)N(c3nccc4ccccc34)[C@@H]3CCCNC3)cc2)cn1", "quantityKind": "microsomal CLint", "valueQualifier": "=", "endpointResult": 13.3}
{"smilesString": "O=C(c1ccc(-n2nnc3cccnc32)cc1)N(c1nccc2ccccc12)[C@@H]1CCCNC1", "quantityKind": "microsomal CLint", "valueQualifier": "=", "endpointResult": 21.8}
{"smilesString": "O=C(c1ccc(-n2nnc3cccnc32)cn1)N(c1ncccc1Cl)[C@@H]1CCCNC1", "quantityKind": "microsomal CLint", "valueQualifier": "<", "endpointResult": 8}
{"smilesString": "O=C(c1ccc(-c2cnn3cccnc23)cc1)N(c1nccc2ccccc12)[C@@H]1CCCNC1", "quantityKind": "microsomal CLint", "valueQualifier": "=", "endpointResult": 14.5}
{"smilesString": "CN(C)c1cncc(-c2ccc(C(=O)N(c3ncccc3Cl)[C@@H]3CCCNC3)cc2)n1", "quantityKind": "microsomal CLint", "valueQualifier": "=", "endpointResult": 18.2}
{"smilesString": "COc1ccc(CCC(=O)N(c2nccc3ccccc23)[C@@H]2CCCNC2)cc1", "quantityKind": "microsomal CLint", "valueQualifier": "=", "endpointResult": 20.6}
{"smilesString": "CNc1cncc(-c2ccc(C(=O)N(c3ncccc3Cl)[C@@H]3CCCNC3)cc2)n1", "quantityKind": "microsomal CLint", "valueQualifier": "=", "endpointResult": 8.7}
{"smilesString": "O=C(c1ccc(-c2cnccn2)cc1)N(c1nccc2ccccc12)[C@@H]1CCCNC1", "quantityKind": "microsomal CLint", "valueQualifier": "=", "endpointResult": 11}

* * *

Catalogue of inhibition at 3 µM readings, one per entry.
testedTarget: UniProt P10635
Sequence (P10635 whole entry): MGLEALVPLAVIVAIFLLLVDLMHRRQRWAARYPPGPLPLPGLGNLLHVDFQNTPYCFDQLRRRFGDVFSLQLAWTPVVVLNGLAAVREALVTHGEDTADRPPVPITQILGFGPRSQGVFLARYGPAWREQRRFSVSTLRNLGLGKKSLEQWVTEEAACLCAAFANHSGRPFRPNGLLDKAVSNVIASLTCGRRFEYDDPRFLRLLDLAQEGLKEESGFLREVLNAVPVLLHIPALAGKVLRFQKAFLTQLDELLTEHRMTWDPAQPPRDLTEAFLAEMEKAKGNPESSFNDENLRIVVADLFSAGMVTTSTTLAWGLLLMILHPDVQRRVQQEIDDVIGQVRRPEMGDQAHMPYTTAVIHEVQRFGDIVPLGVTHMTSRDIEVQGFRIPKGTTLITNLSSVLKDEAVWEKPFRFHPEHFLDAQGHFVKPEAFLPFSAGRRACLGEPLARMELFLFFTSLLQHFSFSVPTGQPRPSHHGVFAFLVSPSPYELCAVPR
assayProtocol: Inhibition of CYP2D6 (unknown origin) at 3 uM relative to control
Type: ADME
quantityKind: inhibition at 3 µM

{"smilesString": "Cc1cnc2c(c1)nnn2-c1ccc(C(=O)N(c2ncccc2Cl)[C@@H]2CCCNC2)nc1", "endpointResult": "< 13%"}
{"smilesString": "COc1ccc(CCC(=O)N(c2nccc3ccccc23)[C@@H]2CCCNC2)cc1", "endpointResult": "< 20%"}

* * *

assayProtocol: Intrinsic clearance in rat liver microsomes
Format: ADME, microsome
experimentalContext: read-out: CLH
Catalogue of microsomal CLint readings, one per entry.

{"smilesString": "Cc1ccc2nnn(-c3ccc(C(=O)N(c4ncccc4Cl)[C@@H]4CCCNC4)cc3)c2n1", "valueQualifier": "=", "microsomal CLint (µL/min/mg)": 38.5}
{"smilesString": "O=C(c1ccc(-c2cnccn2)cc1)N(c1nccc2ccccc12)[C@@H]1CCCNC1", "valueQualifier": "=", "microsomal CLint (µL/min/mg)": 123}
{"smilesString": "O=C(c1ccc(-n2nnc3cccnc32)cn1)N(c1ncccc1Cl)[C@@H]1CCCNC1", "valueQualifier": "=", "microsomal CLint (µL/min/mg)": 15.3}
{"smilesString": "COc1ccc(CCC(=O)N(c2nccc3ccccc23)[C@@H]2CCCNC2)cc1", "valueQualifier": ">", "microsomal CLint (µL/min/mg)": 510}
{"smilesString": "O=C(c1ccc(-n2nnc3cccnc32)cc1)N(c1ncccc1Cl)[C@@H]1CCCNC1", "valueQualifier": "=", "microsomal CLint (µL/min/mg)": 18.2}
{"smilesString": "O=C(c1ccc(-c2cnn3cccnc23)cc1)N(c1nccc2ccccc12)[C@@H]1CCCNC1", "valueQualifier": "=", "microsomal CLint (µL/min/mg)": 31.2}
{"smilesString": "O=C(c1ccc(-c2ccccc2)cc1)N(c1nccc2ccccc12)[C@@H]1CCCNC1", "valueQualifier": "=", "microsomal CLint (µL/min/mg)": 57.7}
{"smilesString": "O=C(c1ccc(-n2nnc3cccnc32)nc1)N(c1ncccc1Cl)[C@@H]1CCCNC1", "valueQualifier": "=", "microsomal CLint (µL/min/mg)": 14.7}
{"smilesString": "Cc1cnc2c(c1)nnn2-c1ccc(C(=O)N(c2ncccc2Cl)[C@@H]2CCCNC2)cc1", "valueQualifier": "=", "microsomal CLint (µL/min/mg)": 16.5}
{"smilesString": "Cc1cnc2c(c1)nnn2-c1ccc(C(=O)N(c2ncccc2Cl)[C@@H]2CCCNC2)nc1", "valueQualifier": "=", "microsomal CLint (µL/min/mg)": 15.1}

* * *

Catalogue of microsomal CLint readings, one per entry.
assayProtocol: Intrinsic clearance in human liver microsomes
Type: ADME, microsome
experimentalContext: read-out: CLH
quantityKind: microsomal CLint (µL/min/mg)

{"smilesString": "O=C(c1ccc(-c2ccccc2)cc1)N(c1nccc2ccccc12)[C@@H]1CCCNC1", "uom": "µL/min/mg", "valueQualifier": "=", "endpointResult": 10.7}
{"smilesString": "Cc1cnc2c(c1)nnn2-c1ccc(C(=O)N(c2ncccc2Cl)[C@@H]2CCCNC2)cc1", "uom": "µL/min/mg", "valueQualifier": "=", "endpointResult": 8.8}
{"smilesString": "O=C(c1ccc(-n2nnc3cccnc32)nc1)N(c1ncccc1Cl)[C@@H]1CCCNC1", "uom": "µL/min/mg", "valueQualifier": "<", "endpointResult": 8}
{"smilesString": "O=C(c1ccc(-n2nnc3cccnc32)cc1)N(c1ncccc1Cl)[C@@H]1CCCNC1", "uom": "µL/min/mg", "valueQualifier": "=", "endpointResult": 9.7}
{"smilesString": "Cc1cnc2c(c1)nnn2-c1ccc(C(=O)N(c2ncccc2Cl)[C@@H]2CCCNC2)nc1", "uom": "µL/min/mg", "valueQualifier": "=", "endpointResult": 9.3}

* * *

Tested on: Rattus norvegicus
assayProtocol: Toxicity in Crl:CD(SD) rat assessed as single cell necrosis in crypt cells in ileum at 50 mg/kg/day, po daily via gavage for 14 days measured on day 15 post last dose
Format: organism-based
experimentalContext: in vivo, 336 h

{"smilesString": "O=C(c1ccc(-n2nnc3cccnc32)cc1)N(c1ncccc1Cl)[C@H]1CCCNC1", "Activity": "Non-Toxic"}
{"smilesString": "O=C(c1ccc(-n2nnc3cccnc32)cc1)N(c1ncccc1Cl)[C@@H]1CCCNC1", "Activity": "Toxic"}
{"smilesString": "O=C(c1ccc(-n2nnc3cccnc32)cn1)N(c1ncccc1Cl)[C@@H]1CCCNC1", "Activity": "Non-Toxic"}
{"smilesString": "Cc1cnc2c(c1)nnn2-c1ccc(C(=O)N(c2ncccc2Cl)[C@@H]2CCCNC2)nc1", "Activity": "Non-Toxic"}
{"smilesString": "Cc1cnc2c(c1)nnn2-c1ccc(C(=O)N(c2ncccc2Cl)[C@@H]2CCCNC2)cc1", "Activity": "Non-Toxic"}
